# experiment: The drug is tested on Bifidobacterium longum subsp. Infantis strain: CCUG52486 for biotransformation. The drug concentrations were measured before and after a 12-h incubation by liquid-chromatography-coupled mass spectrometry (LC–MS)
# condition details: 2 µM
measurement type: Bacterial Biotransformation

compound	measurement type	reported
CN1[C@@H]2CC[C@H]1C[C@@H](OC(=O)C(CO)c1ccccc1)C2 (stereo not given in full)	Bacterial Biotransformation	Compound NOT metabolized
CCCC(=O)Nc1ccc(OCC(O)CNC(C)C)c(C(C)=O)c1 (stereo not given)	Bacterial Biotransformation	Compound NOT metabolized
CNCCC(Oc1ccc(C(F)(F)F)cc1)c1ccccc1 (stereo not given)	Bacterial Biotransformation	Compound metabolized
O=C([O-])C[C@H](O)C[C@H](O)/C=C/c1c(C2CC2)nc2ccccc2c1-c1ccc(F)cc1.O=C([O-])C[C@H](O)C[C@H](O)/C=C/c1c(C2CC2)nc2ccccc2c1-c1ccc(F)cc1.[Ca+2]	Bacterial Biotransformation	Compound NOT metabolized
O=C1NCC2(CCN(CCc3ccccc3)CC2)O1 [FENSPIRIDE]	Bacterial Biotransformation	Compound NOT metabolized
COc1cc2c(c(OC)c1OC)-c1ccc(OC)c(=O)cc1[C@@H](NC(C)=O)CC2	Bacterial Biotransformation	Compound NOT metabolized
CCCCc1nc(Cl)c(CO)n1Cc1ccc(-c2ccccc2-c2nn[nH]n2)cc1	Bacterial Biotransformation	Compound NOT metabolized
CC(C)c1nc(N(C)S(C)(=O)=O)nc(-c2ccc(F)cc2)c1/C=C/[C@@H](O)C[C@@H](O)CC(=O)[O-].CC(C)c1nc(N(C)S(C)(=O)=O)nc(-c2ccc(F)cc2)c1/C=C/[C@@H](O)C[C@@H](O)CC(=O)[O-].[Ca+2]	Bacterial Biotransformation	Compound NOT metabolized
C[N+]12CCC(CC1)C(OC(=O)C(O)(c1ccccc1)c1ccccc1)C2.[Br-] (stereo not given) [CLIDINIUM BROMIDE]	Bacterial Biotransformation	Compound NOT metabolized
CN(CCOc1ccc(CC2SC(=O)NC2=O)cc1)c1ccccn1.O=C(O)/C=C\C(=O)O (stereo not given) [ROSIGLITAZONE MALEATE]	Bacterial Biotransformation	Compound NOT metabolized

// query Requested read-out: Bacterial Biotransformation. Entry: CCCc1nc2c(C)cc(-c3nc4ccccc4n3C)cc2n1Cc1ccc(-c2ccccc2C(=O)O)cc1
// result Compound NOT metabolized

// query Requested read-out: Bacterial Biotransformation. Entry: CCOC(=O)C1=C[C@]2(CC)CCCN3CCc4c(n1c1ccccc41)[C@@H]32
// result Compound NOT metabolized

// query Requested read-out: Bacterial Biotransformation. Entry: Cc1cc2c(cc1S(N)(=O)=O)S(=O)(=O)CCC2
// result Compound NOT metabolized

// query Requested read-out: Bacterial Biotransformation. Entry: O=c1[nH]c2ccccc2n1CCCN1CCC(n2c(=O)[nH]c3cc(Cl)ccc32)CC1
// result Compound NOT metabolized

// query Requested read-out: Bacterial Biotransformation. Entry: CC[C@@]1(O)C(=O)OCc2c1cc1n(c2=O)Cc2cc3c(CN(C)C)c(O)ccc3nc2-1
// result Compound NOT metabolized

// query Requested read-out: Bacterial Biotransformation. Entry: COC1=C(OC)C(=O)C(CCCCCCCCCCO)=C(C)C1=O
// result Compound metabolized

// query Requested read-out: Bacterial Biotransformation. Entry: C[C@H]1O[C@@H](O[C@H]2[C@@H](O)C[C@H](O[C@H]3[C@@H](O)C[C@H](O[C@H]4CC[C@@]5(C)[C@H](CC[C@@H]6[C@@H]5C[C@@H](O)[C@]5(C)[C@@H](C7=CC(=O)OC7)CC[C@]65O)C4)O[C@@H]3C)O[C@@H]2C)C[C@H](O)[C@@H]1O
// result Compound NOT metabolized

// query Requested read-out: Bacterial Biotransformation. Entry: CCCc1nc(C(C)(C)O)c(C(=O)OCc2oc(=O)oc2C)n1Cc1ccc(-c2ccccc2-c2nnn[nH]2)cc1
// result Compound metabolized

// query Requested read-out: Bacterial Biotransformation. Entry: N=C(N)NC(=O)Cc1c(Cl)cccc1Cl
// result Compound NOT metabolized

// query Requested read-out: Bacterial Biotransformation. Entry: CCCc1nn(C)c2c(=O)[nH]c(-c3cc(S(=O)(=O)N4CCN(C)CC4)ccc3OCC)nc12.O=C(O)CC(O)(CC(=O)O)C(=O)O [SILDENAFIL CITRATE]
// result Compound NOT metabolized

// query Requested read-out: Bacterial Biotransformation. Entry: CN1CCOC(c2ccccc2)c2ccccc2C1 (stereo not given)
// result Compound NOT metabolized

// query Requested read-out: Bacterial Biotransformation. Entry: CN(C)CCOC(c1ccc(Cl)cc1)c1ccccn1.O=C(O)/C=C\C(=O)O (stereo not given) [CARBINOXAMINE MALEATE]
// result Compound NOT metabolized

// query Requested read-out: Bacterial Biotransformation. Entry: CC(C)c1c(CN(C)C(C)Cc2ccccc2)n(C)n(-c2ccccc2)c1=O (stereo not given)
// result Compound NOT metabolized

// query Requested read-out: Bacterial Biotransformation. Entry: COc1ccc([C@@H]2Sc3ccccc3N(CCN(C)C)C(=O)[C@@H]2OC(C)=O)cc1
// result Compound metabolized

// query Requested read-out: Bacterial Biotransformation. Entry: CC(C)N(CCC(C(N)=O)(c1ccccc1)c1ccccn1)C(C)C.O=P(O)(O)O (stereo not given) [DISOPYRAMIDE PHOSPHATE]
// result Compound NOT metabolized

// query Requested read-out: Bacterial Biotransformation. Entry: Br.CN1CCC[C@@H]1Cc1c[nH]c2ccc(CCS(=O)(=O)c3ccccc3)cc12 [ELETRIPTAN HYDROBROMIDE]
// result Compound NOT metabolized

// query Requested read-out: Bacterial Biotransformation. Entry: CC(CN(C)C)CN1c2ccccc2CCc2ccccc21.O=C(O)/C=C\C(=O)O (stereo not given) [TRIMIPRAMINE MALEATE]
// result Compound NOT metabolized

// query Requested read-out: Bacterial Biotransformation. Entry: COc1ccc(C(CN(C)C)C2(O)CCCCC2)cc1 (stereo not given)
// result Compound NOT metabolized

// query Requested read-out: Bacterial Biotransformation. Entry: Clc1ccc(Cn2c(CN3CCCC3)nc3ccccc32)cc1
// result Compound NOT metabolized

// query Requested read-out: Bacterial Biotransformation. Entry: CC(C)(C)NC[C@H](O)COc1ccccc1C1CCCC1.CC(C)(C)NC[C@H](O)COc1ccccc1C1CCCC1.O=S(=O)(O)O [PENBUTOLOL SULFATE]
// result Compound NOT metabolized

Entry source: ChEMBL document CHEMBL5303573
